Test: in vivo
Settings: male, NMRI nu/nu, mouse, iv, 8 mg/kg
readout name: Kp at 1 h
Note: the reply should be a number with no unit written.

Endpoint output: Kp at 1 h of C=CC[C@H]1C(=O)C(C)(C)[C@@H](O)CC(=O)O[C@H](c2ccc3sc(C)nc3c2)C[C@@H]2O[C@]2(C)CCC[C@H](C)[C@@H]1O [epothilone] . Value?
16.3

====

Assay: in vivo
Conditions: male, NMRI nu/nu, mouse, iv, 8 mg/kg
readout name: Kp at 2 h
Note: the reply should be a number with no unit written.

Endpoint output: Kp at 2 h of C=CC[C@H]1C(=O)C(C)(C)[C@@H](O)CC(=O)O[C@H](c2ccc3sc(C)nc3c2)C[C@@H]2O[C@]2(C)CCC[C@H](C)[C@@H]1O [epothilone] . Value?
29.1
